test system: Streptococcus mutans; assay: Bactericidal activity against Streptococcus mutans ATCC 35668 after 3 days; format: functional; conditions: ATCC 35668, 72 h
Entries and their measured MBC follow.
Give the number; µg/mL is assumed, so skip it.

COc1c(CC=C(C)C)c(O)cc2c1C[C@H](c1ccc3c(c1O)C=CC(C)(C)O3)CO2; 12.5
CC1(C)S[C@@H]2[C@H](NC(=O)Cc3ccccc3)C(=O)N2[C@H]1C(=O)O; 1.56
COc1c(CC=C(C)C)c(O)cc2c1C[C@H](c1ccc(O)c3c1OC(C)(C)C=C3)CO2; 6.25

In the following, a different compound is considered.
Fill in: MBC of COc1c(CC=C(C)C)c(O)cc2c1C[C@H](c1ccc(O)c(CC=C(C)C)c1O)CO2 is ___
25

---

tested on: Porphyromonas gingivalis; assay: Antibacterial activity against Porphyromonas gingivalis ATCC 33277 after 24 hrs by microbroth dilution assay; format: functional; conditions: ATCC 33277, 24 h
Entries and their measured MIC follow.
Give the number; mg/L is assumed, so skip it.

COc1c(CC=C(C)C)c(O)cc2c1C[C@H](c1ccc3c(c1O)C=CC(C)(C)O3)CO2; 12.5
COc1c(CC=C(C)C)c(O)cc2c1[C@@H]1Oc3c(ccc(O)c3CC=C(C)C)[C@@H]1CO2; 50
COc1cc2occ(-c3ccc(O)cc3)c(=O)c2c(O)c1CC=C(C)C [GANCAONIN G]; 200

Fill in: MIC of CN(C)[C@@H]1C(O)=C(C(N)=O)C(=O)[C@@]2(O)C(O)=C3C(=O)c4c(O)cccc4[C@@](C)(O)[C@H]3C[C@@H]12 [TETRACYCLINE] is ___
1.56

Same lookup for COc1c2c(cc3oc(=O)c4c5ccc(O)cc5oc4c13)OC(C)(C)CC2 [ISOGLYCYROL] , please.
200

Same lookup for COc1c2c(cc3c1C[C@H](c1ccc(O)c(CC=C(C)C)c1O)CO3)OC(C)(C)C=C2 , please.
6.25

Same lookup for COc1c(CC=C(C)C)c(O)cc2c1C[C@H](c1ccc(O)c3c1OC(C)(C)C=C3)CO2 , please.
6.25

Same lookup for COc1c(CC=C(C)C)c(O)cc2c1C[C@H](c1ccc(O)c(CC=C(C)C)c1O)CO2 [LICORICIDIN] , please.
3.12

Same lookup for COc1c(CC=C(C)C)c(O)cc2c1C[C@H](C1=CC(=O)C(O)=C(CC=C(C)C)C1=O)CO2 , please.
25
